assay.system: T1, DFNB31_3, Q9P202
T1 sequence (Q9P202 811-907, limits assumed, looked up): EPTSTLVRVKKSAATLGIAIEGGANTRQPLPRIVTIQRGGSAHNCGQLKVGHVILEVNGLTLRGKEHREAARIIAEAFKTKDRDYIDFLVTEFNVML
assay.procedure: holdup assay
Set-up: key: below the threshold = too weak to quantify, mostly under pKd 3.1 to 4
experimental.conditions: plain residues with an end cap or a label only (N-terminal biotin on a linker: ado-ado)
metric.name: pKd
Answer as a number with no unit attached.

binder	pKd
VYEVPVETKF [SLC26A3, P40879]	3.94
DYSNLRETDI [ADRA1D, P25100]	3.91

In the following, a different binder is considered.
[in] Please look up its pKd: VISSDDLTEL [CAPN6, Q9Y6Q1]
[out] 4

Origin of measurements: paper PMC9482650
